TESTED_ON: Glycogen phosphorylase, muscle form (Oryctolagus cuniculus, UniProt P00489)
Sequence (P00489 whole entry): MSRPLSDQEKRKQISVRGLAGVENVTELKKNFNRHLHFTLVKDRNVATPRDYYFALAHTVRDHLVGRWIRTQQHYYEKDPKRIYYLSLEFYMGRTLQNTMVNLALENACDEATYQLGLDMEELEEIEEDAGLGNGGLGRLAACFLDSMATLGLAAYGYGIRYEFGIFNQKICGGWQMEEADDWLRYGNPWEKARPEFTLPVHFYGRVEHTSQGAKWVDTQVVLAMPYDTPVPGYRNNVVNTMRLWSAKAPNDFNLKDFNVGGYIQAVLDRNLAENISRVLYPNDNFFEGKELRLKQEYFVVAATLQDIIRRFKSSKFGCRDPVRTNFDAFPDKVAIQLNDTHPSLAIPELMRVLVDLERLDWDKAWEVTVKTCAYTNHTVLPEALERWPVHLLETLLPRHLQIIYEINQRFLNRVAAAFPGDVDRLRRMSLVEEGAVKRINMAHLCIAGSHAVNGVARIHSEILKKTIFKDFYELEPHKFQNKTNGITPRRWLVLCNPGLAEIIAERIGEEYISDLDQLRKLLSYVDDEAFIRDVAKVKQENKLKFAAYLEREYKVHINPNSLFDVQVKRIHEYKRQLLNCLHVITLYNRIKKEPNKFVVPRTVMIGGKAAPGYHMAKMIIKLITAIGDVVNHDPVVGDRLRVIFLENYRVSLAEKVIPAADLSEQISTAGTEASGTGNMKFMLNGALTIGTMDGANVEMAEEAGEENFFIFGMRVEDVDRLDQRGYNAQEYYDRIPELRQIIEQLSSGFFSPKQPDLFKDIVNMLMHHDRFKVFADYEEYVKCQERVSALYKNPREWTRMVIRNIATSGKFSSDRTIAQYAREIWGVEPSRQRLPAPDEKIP
READOUT_TYPE: IC50 (µM)

[[record]]
compound = "CC(=O)n1cc2c(n1)C(C)(C)[C@@H]1CC[C@]3(C)[C@H](CC=C4[C@@H]5CC(C)(C)CC[C@]5(C(=O)O)CC[C@]43C)[C@@]1(C)C2"
tested_on = "Glycogen phosphorylase, muscle form (Oryctolagus cuniculus, UniProt P00489)"
data_value = 53.8

[[record]]
compound = "CNCCOC(=O)[C@]12CCC(C)(C)C[C@H]1C1=CC[C@@H]3[C@@]4(C)CC[C@H](O)C(C)(C)[C@@H]4CC[C@@]3(C)[C@]1(C)CC2"
tested_on = "Glycogen phosphorylase, muscle form (Oryctolagus cuniculus, UniProt P00489)"
data_value = 53.2

[[record]]
compound = "CC1(C)CC[C@]2(C(=O)OCc3ccccc3)CC[C@]3(C)C(=CC[C@@H]4[C@@]5(C)Cc6cn(C7CC7)nc6C(C)(C)[C@@H]5CC[C@]43C)[C@@H]2C1"
tested_on = "Glycogen phosphorylase, muscle form (Oryctolagus cuniculus, UniProt P00489)"
data_value = 20.5

[[record]]
compound = "C[C@H]1[C@H](C)CC[C@]2(C(=O)O)CC[C@]3(C)C(=CC[C@@H]4[C@@]5(C)Cc6nonc6C(C)(C)[C@@H]5CC[C@]43C)[C@H]12"
tested_on = "Glycogen phosphorylase, muscle form (Oryctolagus cuniculus, UniProt P00489)"
data_value = 66.3

[[record]]
compound = "Cc1ccc(-n2ncc3c2C(C)(C)[C@@H]2CC[C@]4(C)[C@H](CC=C5[C@@H]6CC(C)(C)CC[C@]6(C(=O)O)CC[C@]54C)[C@@]2(C)C3)cc1"
tested_on = "Glycogen phosphorylase, muscle form (Oryctolagus cuniculus, UniProt P00489)"
data_value = 18.3

[[record]]
compound = "CC(=O)O[C@@H]1C[C@]2(C)[C@H]3CC=C4[C@@H]5[C@@H](C)[C@H](C)CC[C@]5(C(=O)O)CC[C@@]4(C)[C@]3(C)CC[C@H]2C(C)(C)[C@H]1O"
tested_on = "Glycogen phosphorylase, muscle form (Oryctolagus cuniculus, UniProt P00489)"
data_value = 37.7

[[record]]
compound = "CC1(C)CC[C@]2(C(=O)OCC(=O)O)CC[C@]3(C)C(=CC[C@@H]4[C@@]5(C)CC[C@H](O)C(C)(C)[C@@H]5CC[C@]43C)[C@@H]2C1"
tested_on = "Glycogen phosphorylase, muscle form (Oryctolagus cuniculus, UniProt P00489)"
data_value = 62.6

[[record]]
compound = "CC1(C)CC[C@]2(C(=O)OCc3ccccc3)CC[C@]3(C)[C@H]([C@@H](O)C[C@@H]4[C@@]5(C)CC[C@H](O)C(C)(C)[C@@H]5CC[C@]43C)[C@@H]2C1"
tested_on = "Glycogen phosphorylase, muscle form (Oryctolagus cuniculus, UniProt P00489)"
data_value = 6.54

[[record]]
compound = "CC1(C)CC[C@]2(C(=O)OCc3ccccc3)CC[C@]3(C)C(=CC[C@@H]4[C@@]5(C)C/C(=N\\O)[C@H](O)C(C)(C)[C@@H]5CC[C@]43C)[C@@H]2C1"
tested_on = "Glycogen phosphorylase, muscle form (Oryctolagus cuniculus, UniProt P00489)"
data_value = 179

[[record]]
compound = "CC1(C)CC[C@]2(C(=O)O)CC[C@]3(C)C(=CC[C@@H]4[C@@]5(C)CC6C=NOC6C(C)(C)[C@@H]5CC[C@]43C)[C@@H]2C1 (stereo partly specified)"
tested_on = "Glycogen phosphorylase, muscle form (Oryctolagus cuniculus, UniProt P00489)"
data_value = 12.7

[[record]]
compound = "CCN(CC)CC(=O)O[C@H]1CC[C@]2(C)[C@H]3CC=C4[C@@H]5CC(C)(C)CC[C@]5(C(=O)OCc5ccccc5)CC[C@@]4(C)[C@]3(C)CC[C@H]2C1(C)C"
tested_on = "Glycogen phosphorylase, muscle form (Oryctolagus cuniculus, UniProt P00489)"
data_value = 20.1

[[record]]
compound = "C[C@H]1[C@H](C)CC[C@]2(C(=O)OCCN3CCOCC3)CC[C@]3(C)C(=CC[C@@H]4[C@@]5(C)C[C@@H](O)[C@H](O)[C@@](C)(CO)[C@@H]5CC[C@]43C)[C@H]12"
tested_on = "Glycogen phosphorylase, muscle form (Oryctolagus cuniculus, UniProt P00489)"
data_value = 173

[[record]]
compound = "CCOC(=O)[C@]12CC[C@@H](C)[C@H](C)[C@H]1C1=CC[C@@H]3[C@@]4(C)C[C@@H](O)[C@H](O)C(C)(C)[C@@H]4CC[C@@]3(C)[C@]1(C)CC2"
tested_on = "Glycogen phosphorylase, muscle form (Oryctolagus cuniculus, UniProt P00489)"
data_value = 46.7

[[record]]
compound = "C[C@H]1[C@H](C)CC[C@]2(C(=O)OCc3ccccc3)CC[C@]3(C)C(=CC[C@@H]4[C@@]5(C)C/C(=N\\O)C(=O)C(C)(C)[C@@H]5CC[C@]43C)[C@H]12"
tested_on = "Glycogen phosphorylase, muscle form (Oryctolagus cuniculus, UniProt P00489)"
data_value = 82.9

[[record]]
compound = "CC1(C)CC[C@]2(C(=O)OCCCCCCN)CC[C@]3(C)C(=CC[C@@H]4[C@@]5(C)CC[C@H](O)C(C)(C)[C@@H]5CC[C@]43C)[C@@H]2C1"
tested_on = "Glycogen phosphorylase, muscle form (Oryctolagus cuniculus, UniProt P00489)"
data_value = 14.1

[[record]]
compound = "CC1(C)CC[C@]2(C(=O)O)CC[C@]3(C)C(=CC[C@@H]4[C@@]5(C)C[C@H](O)[C@H](O)[C@@](C)(CO)[C@@H]5CC[C@]43C)[C@@H]2C1"
tested_on = "Glycogen phosphorylase, muscle form (Oryctolagus cuniculus, UniProt P00489)"
data_value = 67.8


----------
pIC50: −log10 of the molar value.
For reference, pIC50 measured on Glycogen phosphorylase, muscle form (Oryctolagus cuniculus, UniProt P00489):
READOUT_TYPE: pIC50

[[record]]
molecule = "C[C@H]1[C@H](C)CC[C@]2(C(=O)O)CC[C@]3(C)C(=CC[C@@H]4[C@@]5(C)C[C@@H](OC(=O)c6ccccc6)[C@H](O)C(C)(C)[C@@H]5CC[C@]43C)[C@H]12"
readout_type = "pIC50"
data_value = 5.29

[[record]]
molecule = "CC1(C)CC[C@]2(C(=O)O)CC[C@]3(C)C(=CC[C@@H]4[C@@]5(C)CC[C@H](OC(=O)CCC(=O)O)C(C)(C)[C@@H]5CC[C@]43C)[C@@H]2C1 [OLEANOLIC ACID 3-O-SUCCINATE]"
readout_type = "pIC50"
data_value = 4.46

[[record]]
molecule = "CC1(C)CC[C@]2(C(=O)OCc3ccccc3)CC[C@]3(C)C(=CC[C@@H]4[C@@]5(C)CC[C@H](OC(=O)CN=[N+]=[N-])C(C)(C)[C@@H]5CC[C@]43C)[C@@H]2C1"
readout_type = "pIC50"
data_value = 4.90

[[record]]
molecule = "CCCCOC(=O)[C@]12CC[C@@H](C)[C@H](C)[C@H]1C1=CC[C@@H]3[C@@]4(C)C[C@@H](O)[C@H](O)C(C)(C)[C@@H]4CC[C@@]3(C)[C@]1(C)CC2"
readout_type = "pIC50"
data_value = 4.04

[[record]]
molecule = "CCOC(=O)Cn1cc2c(n1)C(C)(C)[C@@H]1CC[C@]3(C)[C@H](CC=C4[C@@H]5CC(C)(C)CC[C@]5(C(=O)OCc5ccccc5)CC[C@]43C)[C@@]1(C)C2"
readout_type = "pIC50"
data_value = 3.95


These data points were gathered from ChEMBL document CHEMBL1795338.
